These entries and their values trace back to ChEMBL document CHEMBL2321862.

Molecular target: SH2 domain-containing protein 1A (Homo sapiens)
Test: Inhibition of recombinant 6-His-tagged SLAM associated protein SH2 domain (unknown origin) expressed in Escherichia coli BL21(DE3) binding to biotinyl-KKSLTIpYAQVQK-NH2 attached to NeutrAvidin-coated plates using p-nitrophenyl phosphate as substrate at 10 uM after 1 hr relative to control
MEASUREMENT NAME: fold change (FC)
Response field accepts a number only; no unit should be typed.

LINE NOTATION: C[C@@H](OC(C)(C)C)[C@H](NC(=O)[C@H](Cc1ccc2c(c1)COP(=O)(O)O2)NC(=O)OCC1c2ccccc2-c2ccccc21)C(N)=O
fold change (FC): 1.13
//
LINE NOTATION: NCCCC[C@H](NC(=O)[C@H](Cc1ccc2c(c1)COP(=O)(O)O2)NC(=O)OCC1c2ccccc2-c2ccccc21)C(N)=O
fold change (FC): 1.22
//
LINE NOTATION: COC(=O)[C@H](Cc1ccc2c(c1)COP(=O)(O)O2)NC(=O)[C@H](CCC(=O)O)NC(=O)OCC1c2ccccc2-c2ccccc21
fold change (FC): 0.95

Given `COC(=O)[C@H](Cc1ccc2c(c1)COP(=O)(O)O2)NC(=O)[C@H](CCCCN)NC(=O)OCC1c2ccccc2-c2ccccc21` , state its recorded fold change (FC). 1.05

Given `C[C@H](NC(=O)[C@H](Cc1ccc2c(c1)COP(=O)(O)O2)NC(=O)OCC1c2ccccc2-c2ccccc21)C(N)=O` , state its recorded fold change (FC). 1.09

Given `COC(=O)[C@H](Cc1ccc2c(c1)COP(=O)(O)O2)NC(=O)CNC(=O)OCC1c2ccccc2-c2ccccc21` , state its recorded fold change (FC). 0.77

Given `NC(=O)CC[C@H](NC(=O)[C@H](Cc1ccc2c(c1)COP(=O)(O)O2)NC(=O)OCC1c2ccccc2-c2ccccc21)C(N)=O` , state its recorded fold change (FC). 0.99

Given `NC(=O)[C@H](CCC(=O)O)NC(=O)[C@H](Cc1ccc2c(c1)COP(=O)(O)O2)NC(=O)OCC1c2ccccc2-c2ccccc21` , state its recorded fold change (FC). 1.31

Given `CC[C@H](C)[C@H](NC(=O)OCC1c2ccccc2-c2ccccc21)C(=O)N[C@@H](Cc1ccc2c(c1)COP(=O)(O)O2)C(=O)OC` , state its recorded fold change (FC). 1.51

Given `NC(=O)[C@H](Cc1ccc(O)cc1)NC(=O)[C@H](Cc1ccc2c(c1)COP(=O)(O)O2)NC(=O)OCC1c2ccccc2-c2ccccc21` , state its recorded fold change (FC). 0.95

Given `COC(=O)[C@H](Cc1ccc2c(c1)COP(=O)(O)O2)NC(=O)[C@H](Cc1ccc(O)cc1)NC(=O)OCC1c2ccccc2-c2ccccc21` , state its recorded fold change (FC). 1.05

Given `COC(=O)[C@H](Cc1ccc2c(c1)COP(=O)(O)O2)NC(=O)[C@H](Cc1ccccc1)NC(=O)OCC1c2ccccc2-c2ccccc21` , state its recorded fold change (FC). 0.84

Given `COC(=O)[C@H](Cc1ccc2c(c1)COP(=O)(O)O2)NC(=O)[C@@H](NC(=O)OCC1c2ccccc2-c2ccccc21)C(C)C` , state its recorded fold change (FC). 1.29

Given `NC(=O)[C@H](CC(=O)NC(c1ccccc1)(c1ccccc1)c1ccccc1)NC(=O)[C@H](Cc1ccc2c(c1)COP(=O)(O)O2)NC(=O)OCC1c2ccccc2-c2ccccc21` , state its recorded fold change (FC). 1.03
